Attribute: self-cleavage
B1: LINE1-mini (parent)
chain: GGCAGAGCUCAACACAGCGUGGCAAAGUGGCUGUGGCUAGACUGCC

variants of: B1; test: self-cleavage, relative activity (ratio to wild type); higher = more cleavage; in vitro, sequencing; the parent is a self-cleaving ribozyme

{"mut": "G2C G30A", "self-cleavage": 0.24}
{"mut": "G27C G36C", "self-cleavage": 0.09}
{"mut": "A11C G44A", "self-cleavage": 0.06}
{"mut": "A26G U32C", "self-cleavage": 0.18}
{"mut": "C3G U9A", "self-cleavage": 0.27}
{"mut": "A6G G33C", "self-cleavage": 0.03}
{"mut": "A6G U38C", "self-cleavage": 0.07}
{"mut": "A12C G36A", "self-cleavage": 0.2}
{"mut": "G2U A41U", "self-cleavage": 0.08}
{"mut": "U9G C31A", "self-cleavage": 0.04}
{"mut": "C23G G36U", "self-cleavage": 0.07}
{"mut": "A41G C46A", "self-cleavage": 0.22}
{"mut": "A16G C37U", "self-cleavage": 0.04}
{"mut": "A11U G36A", "self-cleavage": 0.02}
{"mut": "C10G G30C", "self-cleavage": 0.2}
{"mut": "A4C U43C", "self-cleavage": 0.08}
{"mut": "U34A G40C", "self-cleavage": 0.04}
{"mut": "A12G G44U", "self-cleavage": 0.09}
{"mut": "G2U C46A", "self-cleavage": 0.09}
{"mut": "A4U C46U", "self-cleavage": 0.19}
{"mut": "A41U G44C", "self-cleavage": 0.49}
{"mut": "C10G U28A", "self-cleavage": 0.11}
{"mut": "G7C G40C", "self-cleavage": 0.05}
{"mut": "G17C U20A", "self-cleavage": 0.55}
{"mut": "G1A G19A", "self-cleavage": 1.77}
{"mut": "A39G C42G", "self-cleavage": 0.03}
{"mut": "G7U U32A", "self-cleavage": 0.08}
{"mut": "G2U G27U", "self-cleavage": 0.06}
{"mut": "G2U C15G", "self-cleavage": 0.02}
{"mut": "C3A G36A", "self-cleavage": 1.1}
{"mut": "C10U G19C", "self-cleavage": 0.24}
{"mut": "G5C U43C", "self-cleavage": 0.04}
{"mut": "C3G G17A", "self-cleavage": 0.14}
{"mut": "A4C G29A", "self-cleavage": 0.07}
{"mut": "U9G A11U", "self-cleavage": 0.03}
{"mut": "G30U A39C", "self-cleavage": 0.19}
{"mut": "C13G G44A", "self-cleavage": 0.12}
{"mut": "C13U G17U", "self-cleavage": 0.12}
{"mut": "C8G G33A", "self-cleavage": 0.12}
{"mut": "U9G G29A", "self-cleavage": 0.08}
{"mut": "C10U U38G", "self-cleavage": 0.03}
{"mut": "U9C A16C", "self-cleavage": 0.02}
{"mut": "G1U A14C", "self-cleavage": 0.03}
{"mut": "C13U G44U", "self-cleavage": 0.1}
{"mut": "A6U G22C", "self-cleavage": 0.37}
{"mut": "A25G C37U", "self-cleavage": 0.06}

The measured values listed here are drawn from the RNAGym collection of RNA variant scans (doi:10.7554/elife.90254).
